Target: T1, human GLP-1 receptor (human, UniProt P43220 24-463)
T1 construct: whole, on cells
Assay: SPA competition, displacement of 125I-GLP-1(7-36)NH2 from BHK membranes with human GLP-1 receptor; low HSA (max. 0.001%)
Starred links: 1 amine or outer side, 2 acyl side, 3 side chain; linkers in the order of their positions; H or OH if unused. Non-standard residues stand in square brackets, D forms with d. Groups on a side chain read outwards from the residue. No end group written: not given here. *: point of attachment. C20 diacid = O=C(O)CCCCCCCCCCCCCCCCCCC(=O)*; γGlu = O=C(O)[C@H](CCC(=O)[*:2])N[*:1]; Desaminohistidyl = O=C(CCc1c[nH]cn1)*; Trx = NC[C@H]1CC[C@H](C(=O)O)CC1; AEEA = NCCOCCOCC(=O)O; Aib = CC(C)(N)C(=O)O
Would you mind telling me the reported IC50 of each entry?
Numeric only. Scale: nM

Q) Given the binder HXEGTFTSDVSSYLEEQAAREFIAWLVRGRK (not fully specified; Aib at position 8 (GLP-1 numbering); epsilon-amino of Lys37 acylated with branched side chain: Pre-linker dPEG12; Branched linker eps-Lys(Bis); two Post-linkers Trx-gGlu, each carrying a C20 diacid Protractor, also called Chem. 24; N{Epsilon-37}-acylated [Aib8,Glu22,Arg26,Arg34,Lys37]-GLP-1-(7-37)-peptide) [GLP-1 derivative of Example 4] , what is its reported IC50?
A) 0.78

Q) Record: HXEGTFTSDVSSYLEEQAAREFIAWLVRGRK (not fully specified; Aib at position 8 (GLP-1 numbering); epsilon-amino of Lys37 acylated with branched side chain: Pre-linker dPEG20; Branched linker eps-Lys(Bis); two Post-linkers Trx-gGlu, each carrying a C20 diacid Protractor, also called Chem. 25; N{Epsilon-37}-acylated [Aib8,Glu22,Arg26,Arg34,Lys37]-GLP-1-(7-37)-peptide) [GLP-1 derivative of Example 5]
A) 0.91

Q) Then this binder: [Desaminohistidyl][Aib]EGTFTSDVSSYLEEQAAREFIAWLVRGRGGK([AEEA-AEEA-Lys-AEEA-AEEA-γGlu-Trx-C20 diacid),(Ado-AEEA-γGlu-Trx-C20 diacid]) (also: branched side chain on Lys39: two identical arms on eps-Lys(Bis), also called Chem. 27; [Imp7,Aib8,Glu22,Arg26,Arg34]-GLP-1-(7-37)-peptidyl-Gly-N{Epsilon}-acylated Lys) [GLP-1 derivative of Example 7]
A) 0.57

Q) Also, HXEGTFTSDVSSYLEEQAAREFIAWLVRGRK (not fully specified; Aib at position 8 (GLP-1 numbering); epsilon-amino of Lys37 acylated with branched side chain: Pre-linker 2xeps-Lys; Branched linker eps-Lys(Bis); two Post-linkers Trx-gGlu, each carrying a C20 diacid Protractor, also called Chem. 29; N{Epsilon-37}-acylated [Aib8,Glu22,Arg26,Arg34,Lys37]-GLP-1-(7-37)-peptide) [GLP-1 derivative of Example 9] please.
A) 1.8

Q) Next record, please: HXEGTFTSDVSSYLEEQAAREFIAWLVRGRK (not fully specified; Aib at position 8 (GLP-1 numbering); epsilon-amino of Lys37 acylated with branched side chain: Pre-linker 2xAdo; Branched linker eps-Lys(Bis); two Post-linkers Trx-gGlu-4xAdo, each carrying a C20 diacid Protractor, also called Chem. 34; N{Epsilon-37}-acylated [Aib8,Glu22,Arg26,Arg34,Lys37]-GLP-1-(7-37)-peptide) [GLP-1 derivative of Example 14]
A) 0.42

Q) Then this binder: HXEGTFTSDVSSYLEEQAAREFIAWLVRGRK (Aib at position 8 (GLP-1 numbering); epsilon-amino of Lys37 acylated with branched side chain: Pre-linker 2xAdo; Branched linker eps-Lys(Bis); two Post-linkers Trx-gGlu, each carrying a C20 diacid Protractor, also called Chem. 31; N{Epsilon-37}-acylated [Aib8,Glu22,Arg26,Arg34,Lys37]-GLP-1-(7-37)-peptide) [GLP-1 derivative of Example 11]
A) 1.5
